test: Solubility of meclizine hydrochloride in Solutol HS15 and HP-β-CD solutions; type: physicochemical; conditions: aqueous with cosolvent or surfactant or cyclodextrin, thermodynamic from solid; 20% (w/v) HP-β-CD aqueous solution, room temperature (22° C.)
Structures can show the parent of a compound that is named as a salt.
reported_property: solubility

compound	result
Cc1cccc(CN2CCN(C(c3ccccc3)c3ccc(Cl)cc3)CC2)c1 (stereo not shown) [meclizine hydrochloride]	34.3 mg/mL

====

Test: Solubility of meclizine hydrochloride in Solutol HS15 and HP-β-CD solutions
Assay type: physicochemical
Conditions: aqueous with cosolvent or surfactant or cyclodextrin, thermodynamic from solid; 10% (w/v) Solutol HS15 aqueous solution, room temperature (22° C.)
Method: The ability of Solutol® HS15 and HP-β-CD to enhance the aqueous solubility of meclizine hydrochloride is determined in this example. Aqueous solutions containing 0.1, 0.5, 1, 2.5, 5, 10, 15, 20, and 25% (w/v) (w/v) of Solutol® HS15 or HP-β-CD solubilizers were prepared. […] The filtrate samples were diluted and detected by HPLC and the concentration of meclizine hydrochloride in the samples was calculated with the calibration curve made from standard solutions of meclizine hydrochloride.
Counter-ions that a name gives are not always drawn.
reported_property: solubility (mg/mL)

compound	quantitative_readout
Cc1cccc(CN2CCN(C(c3ccccc3)c3ccc(Cl)cc3)CC2)c1 (stereo not shown) [meclizine hydrochloride]	15.4

====

test: Solubility of meclizine hydrochloride in Solutol HS15 and HP-β-CD solutions; format: physicochemical; conditions: aqueous with cosolvent or surfactant or cyclodextrin, thermodynamic from solid; 25% (w/v) Solutol HS15 aqueous solution, room temperature (22° C.)
Counter-ions that a name gives are not always drawn.

compound	solubility / mg/mL
Cc1cccc(CN2CCN(C(c3ccccc3)c3ccc(Cl)cc3)CC2)c1 (stereo not shown) [meclizine hydrochloride]	40.1

====

assay: Solubility of meclizine hydrochloride in Solutol HS15 and HP-β-CD solutions; type: physicochemical; conditions: aqueous with cosolvent or surfactant or cyclodextrin, thermodynamic from solid; 0.1% (w/v) HP-β-CD aqueous solution, room temperature (22° C.)
Where a name gives a salt, the structure may show the parent alone.

compound	unit_descriptor	solubility
Cc1cccc(CN2CCN(C(c3ccccc3)c3ccc(Cl)cc3)CC2)c1 (stereo not shown) [meclizine hydrochloride]	µg/mL	3400

====

test: Solubility of meclizine hydrochloride in Solutol HS15 and HP-β-CD solutions; assay type: physicochemical; settings: aqueous with cosolvent or surfactant or cyclodextrin, thermodynamic from solid; 5% (w/v) Solutol HS15 aqueous solution, room temperature (22° C.)
Counter-ions that a name gives are not always drawn.
reported_property: solubility (mg/mL)

molecule	unit_descriptor	quantitative_readout
Cc1cccc(CN2CCN(C(c3ccccc3)c3ccc(Cl)cc3)CC2)c1 (stereo not shown) [meclizine hydrochloride]	mg/mL	9.2

====

assay: Solubility of meclizine hydrochloride in Solutol HS15 and HP-β-CD solutions; type: physicochemical; conditions: aqueous with cosolvent or surfactant or cyclodextrin, thermodynamic from solid; 20% (w/v) Solutol HS15 aqueous solution, room temperature (22° C.)
Structures can show the parent of a compound that is named as a salt.
reported_property: solubility (mg/mL)

compound	unit_descriptor	quantitative_readout
Cc1cccc(CN2CCN(C(c3ccccc3)c3ccc(Cl)cc3)CC2)c1 (stereo not shown) [meclizine hydrochloride]	mg/mL	36.8
